The measurements presented in this section are drawn from patent US6281214A.

Record type: pKi measurement. Applies to: UniProt:P14842
Sequence (P14842 whole entry): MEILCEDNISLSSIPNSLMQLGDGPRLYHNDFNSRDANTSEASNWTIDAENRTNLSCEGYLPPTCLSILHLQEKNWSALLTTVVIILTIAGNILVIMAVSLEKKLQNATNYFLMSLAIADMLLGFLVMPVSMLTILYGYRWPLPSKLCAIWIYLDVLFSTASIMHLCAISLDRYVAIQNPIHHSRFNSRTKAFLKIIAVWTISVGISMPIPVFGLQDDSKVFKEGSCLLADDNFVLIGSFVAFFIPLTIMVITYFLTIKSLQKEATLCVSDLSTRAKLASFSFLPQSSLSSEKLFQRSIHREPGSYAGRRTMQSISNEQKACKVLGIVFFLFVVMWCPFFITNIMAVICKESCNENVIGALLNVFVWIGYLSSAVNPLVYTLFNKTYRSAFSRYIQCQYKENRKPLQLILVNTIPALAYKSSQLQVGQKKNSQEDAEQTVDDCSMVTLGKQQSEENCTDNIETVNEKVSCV
pKi: −log10 of the molar value.
readout kind: pKi

- CCCC(F)c1cc(N2CCN(CC)CC2)cc(-c2ccccc2C)c1F (stereo not drawn): 7.75
- CC[C@@H](F)c1cc(N2CCN(C)CC2)cc(-c2ccccc2CF)c1Cl: 7.37
- CCN1CCN(c2cc(-c3ccccc3)c(Cl)c(S(=O)(=O)CC)c2)CC1: 8.27
- CC[C@@H](F)c1cc(N2CCN(CC)CC2)cc(-c2ccc(F)cc2C)c1Cl: 5.99
- CCN1CCN(c2cc(-c3ccc(F)cc3)c(OC)c(S(=O)(=O)CC)c2)CC1: 8.44
- CC[C@H](F)c1cc(N2CCN(C)CC2)cc(-c2ccccc2CF)c1Cl: 8.20
- CCCC(F)c1cc(N2CCN(CC)CC2)cc(-c2ccccc2C)c1Cl (stereo not drawn): 7.70
- CCCc1cc(N2CCN(CC)CC2)cc(-c2ccccc2)c1OC: 7.44
